Listed binders paired with reported peptide exchange yield
- measurement-target: T1, HLA-A*02:01 (peptide-receptive MHC class I monomer after UV-ligand exchange) (human)
- T1 construct: Monomers made with a UV-sensitive peptide that is cleaved by UV and exchanged for the test peptide; captured on streptavidin plates; also called MHC molecules
- assay: UV-ligand exchange + anti-b2m ELISA; exchange yield grade: + >=10%, ++ >=20%, +++ >=50, ++++ >=75%

Solved cases below.
Need peptide exchange yield, item SLDIITITV [peptide SLDIITITV (SEQ ID NO: 27)] ≥ 75%

Need peptide exchange yield, item ALVDHLNVGV [peptide ALVDHLNVGV (SEQ ID NO: 98)] 50 to 75%

Need peptide exchange yield, item SLDLHVPSL [peptide SLDLHVPSL (SEQ ID NO: 75)] 50 to 75%

New cases:
Need peptide exchange yield, item SLSGEIILHSV [peptide SLSGEIILHSV (SEQ ID NO: 45)] 20 to 50%

Need peptide exchange yield, item SLQSLIISV [peptide SLQSLIISV (SEQ ID NO: 5)] ≥ 75%

Need peptide exchange yield, item KLFDRSVDL [peptide KLFDRSVDL (SEQ ID NO: 69)] 20 to 50%

Need peptide exchange yield, item ALLEPGGVLTI [peptide ALLEPGGVLTI (SEQ ID NO: 114)] 50 to 75%

Need peptide exchange yield, item ALWVAVPKA [peptide ALWVAVPKA (SEQ ID NO: 46)] 50 to 75%

Need peptide exchange yield, item ALLDGTVFEI [peptide ALLDGTVFEI (SEQ ID NO: 97)] 50 to 75%

Need peptide exchange yield, item KVIDYVPGI [peptide KVIDYVPGI (SEQ ID NO: 86)] 50 to 75%

Need peptide exchange yield, item GLDPTQFRV [peptide GLDPTQFRV (SEQ ID NO: 39)] 50 to 75%

Need peptide exchange yield, item VLAEIDPKQLV [peptide VLAEIDPKQLV (SEQ ID NO: 3)] 50 to 75%
